Tested on: human osteosarcoma cell line SJSA-1
assay method text: Inhibition of proliferation of human osteosarcoma cell line SJSA-1 (DAPI staining, In Cell Analyzer)
assay context: Homo sapiens, SJSA-1, 72 h, read-out: IC50 (nM), inhibitory activity on proliferation of human osteosarcoma cell line SJSA-1, SJSA-1, incubated 72 h
quantity measured: IC50

Recorded IC50 (compound COc1cc(C(F)(F)F)ncc1-c1nc2c(n1C(C)C)[C@@]1(C(=O)Nc3cc(Cl)ccc31)N(c1cc(Cl)ccc1C)C2=O ): 75.7 nM

So for COc1ccc(N2C(=O)c3nc(-c4ccc(N)cc4OC)n(C(C)C)c3[C@]23C(=O)Nc2cc(Cl)ccc23)cc1Cl , the logged IC50 turned out to be 7020 nM

Short answer for COc1nc(OC(C)C)ncc1-c1nc2c(n1C(C)C)[C@@]1(C(=O)Nc3cc(Cl)ccc31)N(c1cc(Cl)ccc1C)C2=O : IC50 was 79.6 nM

Entry under test: COc1ncc(-c2nc3c(n2C(C)C)[C@]2(C(=O)Nc4cc(Cl)ccc42)N(c2cc(C)cc(Cl)c2)C3=O)c(OC)n1 . Its IC50 was 9520 nM

Sure, the documented IC50 for COc1ccc(N2C(=O)c3nc(-c4ccc(N)cc4OC)n(C(C)C)c3[C@@]23C(=O)Nc2cc(Cl)ccc23)cc1Cl is 292 nM

Reported IC50 of COc1cc(C(C)C)ccc1-c1nc2c(n1C(C)C)[C@@]1(C(=O)Nc3cc(Cl)ccc31)N(c1cc(Cl)ccc1C)C2=O : 10.1 nM

The compound Cc1ccc(Cl)cc1N1C(=O)c2nc(-c3ccccc3OC(F)(F)F)n(C(C)C)c2[C@]12C(=O)Nc1cc(Cl)ccc12 showed IC50 equal to 3580 nM

// COc1cc(OC(F)(F)F)ccc1-c1nc2c(n1C(C)C)[C@]1(C(=O)Nc3cc(Cl)ccc31)N(c1cc(Cl)ccc1C)C2=O : IC50 value = 7350 nM

What the record says about COc1ncc(-c2nc3c(n2C(C)C)[C@]2(C(=O)Nc4cc(Cl)ccc42)N(c2ccc(OC)c(Cl)c2)C3=O)c(OC)n1 : IC50 is 3630 nM

// sample COc1nc(OCCF)ncc1-c1nc2c(n1C(C)C)[C@@]1(C(=O)Nc3cc(Cl)ccc31)N(c1cc(Cl)cnc1C)C2=O , its IC50 was 131 nM

IC50 reading for CCc1ccc(-c2nc3c(n2C(C)C)[C@]2(C(=O)Nc4cc(Cl)ccc42)N(c2cccc(Cl)c2)C3=O)c(OC)c1 : 3240 nM

// sample CCc1ccc(-c2nc3c(n2C(C)C)[C@@]2(C(=O)Nc4cc(Cl)ccc42)N(c2cc(Cl)ccc2C)C3=O)c(OC)c1 , its IC50 was 9.7 nM

Consider COc1cc(OCCF)ncc1-c1nc2c(n1C(C)C)[C@@]1(C(=O)Nc3cc(Cl)ccc31)N(c1cc(Cl)cnc1C)C2=O . Its measured IC50 is 217 nM

Origin of the recorded values: patent US11339171B2
